biological target: 5-hydroxytryptamine receptor 1A (Rattus norvegicus, UniProt P19327); assay: Displacement of [3H]8-OH-DPAT from rat hippocampal 5-hydroxytryptamine 1A receptor; type: tissue-based, Hippocampus
Sequence (P19327 whole entry): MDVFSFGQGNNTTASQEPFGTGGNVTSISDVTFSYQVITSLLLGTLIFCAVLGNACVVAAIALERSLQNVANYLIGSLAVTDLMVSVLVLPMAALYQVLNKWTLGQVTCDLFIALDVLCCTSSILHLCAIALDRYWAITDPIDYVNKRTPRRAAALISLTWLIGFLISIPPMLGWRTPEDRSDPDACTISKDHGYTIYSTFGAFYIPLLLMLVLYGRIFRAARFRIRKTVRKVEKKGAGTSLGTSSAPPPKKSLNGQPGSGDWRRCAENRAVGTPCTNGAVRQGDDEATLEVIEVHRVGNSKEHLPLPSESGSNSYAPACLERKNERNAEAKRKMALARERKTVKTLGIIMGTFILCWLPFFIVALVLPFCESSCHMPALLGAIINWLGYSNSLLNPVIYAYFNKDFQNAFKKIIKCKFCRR
pKi: −log10 of the molar value.
Label condition not met if pKi falls below 6; label condition met in every other case.

>>> category("COc1cccc2c1CC(N)CC2 (centres undefined)")
"condition met"
>>> category("CCCN(CCC)C1CCc2cc3ccccc3c(O)c2C1 (centres undefined)")
"condition not met"
>>> category("COc1ccc(C)c2c1CC(N)CC2 (centres undefined)")
"condition met"
>>> category("CCCN(CCC)C1CCc2cccc(OC)c2C1 (centres undefined)")
"condition met"
>>> category("COc1c2c(cc3ccccc13)CCC(N)C2 (centres undefined)")
"condition not met"
>>> category("CCCN(CCC)C1CCc2c(C)ccc(OC)c2C1 (centres undefined)")
"condition met"
>>> category("CC(C)(C)NCC(O)COc1cccc2c1SCCC2 (centres undefined)")
"condition met"

* * *

molecular target: UniProtKB P28564
Sequence (P28564 whole entry): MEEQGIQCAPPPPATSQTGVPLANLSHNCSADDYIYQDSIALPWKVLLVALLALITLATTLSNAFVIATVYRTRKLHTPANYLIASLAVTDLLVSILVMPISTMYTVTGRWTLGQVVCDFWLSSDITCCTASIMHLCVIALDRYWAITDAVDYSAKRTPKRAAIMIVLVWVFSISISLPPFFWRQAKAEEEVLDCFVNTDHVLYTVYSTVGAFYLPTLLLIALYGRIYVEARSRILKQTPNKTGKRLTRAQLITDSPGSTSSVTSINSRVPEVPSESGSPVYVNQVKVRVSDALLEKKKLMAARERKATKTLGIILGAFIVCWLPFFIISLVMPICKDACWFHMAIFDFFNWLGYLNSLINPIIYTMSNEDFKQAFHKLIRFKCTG
Simple rule here: Ki less than 600 nM is 1, otherwise 0.

>>> category("CCCN(CCC)C1CCc2c(c(OC)cc3ccccc23)C1 (configuration not stated)")
0
>>> category("CCCN(CCC)C1CCc2c(C)ccc(O)c2C1 (configuration not stated)")
0
>>> category("COc1cccc2c1CC(N)CC2 (configuration not stated)")
0
>>> category("CCCN(CCC)C1CCc2cccc(OC)c2C1 (configuration not stated)")
0
>>> category("COc1cc2ccccc2c2c1CC(N)CC2 (configuration not stated)")
1
>>> category("COc1ccc(C)c2c1CC(N)CC2 (configuration not stated)")
0
>>> category("CCCN(CCC)C1CCc2c(C)ccc(OC)c2C1 (configuration not stated)")
1

Values from ChEMBL document CHEMBL1127118
